Where do the numbers come from? From patent US20200223906A1.

So I've got a bunch of binders here, and I need their Neut IC50 (µg/ml) subtype A values.
Target: RSV F protein of subtype A (strain A2) on recombinant mKate-RSV virus (Respiratory syncytial virus subtype A …, UniProt P03420 26-574)
Assay: cell-based or functional assay
Please give a number only; it is taken to be in µg/mL.

Record ADI-18895 (antibody, V domains shown, full-length IgG from yeast; also called Antibody Number 250; Ab # 250) VH: QVQLVQSGPEVKKTRESLKIYCKGSGYSFISHWIGWVRQKPGKGLEWMGIIYPGDSDTRYSPSFQGQVAISADKSINTAYLQWSSLKSSDTAIYYCASVMLRGIMWGQGTLVTVSS VL: DIRLTQSPSSLSASVGDRVTITCQASQDISKYLNWYQQKPGKAPKLLIYDASNLETGVPSRFSGSGSGTDFTFTISSLQPEDIATYYCQPYDNLPPPLTFGGGTKLEIK , field Neut IC50 (µg/ml) subtype A: 2.3

Record ADI-18975 (antibody, V domains shown, full-length IgG from yeast; also called Antibody Number 323; Ab # 323) VH: QVQLVQSGAEVKKPGASVKVSCKASGYTFVHYGISWVRQAPGQGLEWMGWISAYNGNTNSALKFQDRVTMTTDPSTSTAYMELRSLRSDDTAIYYCARDSGCCSGSTSDVWGKGTTVTVSS VL: DIVMTQSPLSSPVTLGQPASISCRSSQSLVHSDGNTYLSWLHQRPGQPPRLLIYKISHRFSGVPDRFTGSGAGTDFTLKISRVEAEDVGVYYCMQATEFPPMYTFGQGTKVEIK , field Neut IC50 (µg/ml) subtype A: 0.037

Record ADI-18927 (antibody, V domains shown, full-length IgG from yeast) VH: QVQLVQSGAEVKKPGASVKVSCKASGYTFTDYFIHWVRQAPGEGLEWMGWVNPLSDNTKYSQKFQGRVTMSTDTSITTAYMYLSRLRFDDTAVYFCASQSSPYTPGALDVWGQGTTVTVSS VL: DIQLTQSPSSLPASVGDRVTITCRASQNIGNNLAWYQQKAGRAPKLLIYSASNFHSGVPSRFIGSGSGTVFTLTISSLQPEDFATYFCQQSFTPQFTFGPGTKVEIK , field Neut IC50 (µg/ml) subtype A: 0.022

Record ADI-18951 (antibody, V domains shown, full-length IgG from yeast) VH: QVQLVQSGGGLVQPGGSLRLSCAASGFAFSDYTMSWVRQAPGKGLEWVSSVSGTGGTSYYADSVNGRFAISRENSKNTLFLQMDSLRAEDTATYYCAKDGLRDVSRVYYIDVWGKGTTVTVSS VL: QPVLTQPASVSGSPGQSITISCTGTSRDIGSHDSVSWYQQKPGKAPKLIIYAVRNRPSGLSNRFSGSKSGNTASLTISGLQTEDEGDYYCSSYRNGNALGVFGTGTKVTVL , field Neut IC50 (µg/ml) subtype A: 3.4

Record ADI-18880 (antibody, V domains shown, full-length IgG from yeast) VH: QVQLVQSGSEVKKPGAAVKVSCKASGYIFANFGVSWVRQAPGQGLEWMGWISAYNGNTNYAQKFQGRVIMTTDTSTSTAYMELRSLRSDDTAVYYCARDPPAYAATLMDVWGKGTTVTVSS VL: EIVLTQSPLSLPVTLGQSASISCRSSQSLEHSDTNTYLTWYQQRPGQSPRRLLYKVSNRDSGVPDRFSGSGSGTDFTLKISRVEAEDVGVYYCMQGTHWPPTFGQGTKVDIK , field Neut IC50 (µg/ml) subtype A: 0.041

Record ADI-18946 (antibody, V domains shown, full-length IgG from yeast) VH: QVQLVQSGGGVVQPGRSLRLSCAASGFTFSDYAMHWVRQAPGKGLEWVAIISYDANNKYYADSVKGRFTISRDNSKNTVYLQMNSLRPEDTAVYYCAKEEWLVPAYWGQGILVTVSS VL: QSVLTQPASVSGSPGQSITISCTGTSSDVGGYNYVSWYQQHPGKAPKLLIYEVSNRPSGVSNRFSGSKSGNTASLTISGLQPEDEADYYCSSYSTNSAPFGTGTKLTVL , field Neut IC50 (µg/ml) subtype A: 0.093
